# method-notes: activity coefficient (dimensionless); of the first substance listed, at infinite dilution; xn = mol fraction of the nth substance listed
# assay-context: 353.15 K; 101.33 kPa; Liquid; Chromatography; x1 = 0
endpoint: activity coefficient

CCCCCCCCCCCC [dodecane] + CCn1cc[n+](C)c1.CO[PH](=O)[O-]: 1300
ClCCl [dichloromethane] + CCn1cc[n+](C)c1.CO[PH](=O)[O-]: 0.798
CCCCCCCCCC [decane] + CCn1cc[n+](C)c1.CO[PH](=O)[O-]: 582
Cc1cccc(C)c1 [1,3-dimethylbenzene] + CCn1cc[n+](C)c1.CO[PH](=O)[O-]: 20.4
C[N+](=O)[O-] [nitromethane] + CCn1cc[n+](C)c1.CO[PH](=O)[O-]: 0.831

Exercise: // lookup activity coefficient for CCCC(C)=O [pentan-2-one] + CCn1cc[n+](C)c1.CO[PH](=O)[O-]
Solution: 6.15

Exercise: // lookup activity coefficient for Cc1ccc(C)cc1 [1,4-dimethylbenzene] + CCn1cc[n+](C)c1.CO[PH](=O)[O-]
Solution: 19.3

Exercise: // lookup activity coefficient for CCCCO [butan-1-ol] + CCn1cc[n+](C)c1.CO[PH](=O)[O-]
Solution: 0.308

Exercise: // lookup activity coefficient for CCO [ethanol] + CCn1cc[n+](C)c1.CO[PH](=O)[O-]
Solution: 0.156

Exercise: // lookup activity coefficient for ClC(Cl)Cl [trichloromethane] + CCn1cc[n+](C)c1.CO[PH](=O)[O-]
Solution: 0.451

Exercise: // lookup activity coefficient for C#CCCCC [1-hexyne] + CCn1cc[n+](C)c1.CO[PH](=O)[O-]
Solution: 7.14

Exercise: // lookup activity coefficient for C1CCCCCC1 [cycloheptane] + CCn1cc[n+](C)c1.CO[PH](=O)[O-]
Solution: 303

Exercise: // lookup activity coefficient for CCCO [propan-1-ol] + CCn1cc[n+](C)c1.CO[PH](=O)[O-]
Solution: 0.207

Exercise: // lookup activity coefficient for C#CCCCCC [1-heptyne] + CCn1cc[n+](C)c1.CO[PH](=O)[O-]
Solution: 11.8
